Please respond with reported pEC50 for every item in the list.
# measured-target: SARS-CoV-2 receptor binding domain (UniProt P0DTC2 319-541)
# experiment-notes: ELISA
One number for each entry, as −log10 of the molar value.

Worked examples, 3 binders total:
binder	quantitative-result
10-O24-A (antibody, V domains shown) VH: QAYLQQSGAELVRPGASVKMSCKASGYTFTSYSMHWVKQTPRQGLEWIGAIYPGNDDTSYNQKFKGKATLTVDRSSSTAYMQLSSLTSEDSAVYFCTRDYSNYPFDYWGQGTTLTVSS VL: DIVLTQSPASLAVFLGQRATISCRASKSVSTSGYSYMHWYQQRPGQPPKLLIYLASNLESGVPARFSGSGSGTDFTLNIHPVEEEDAATYYCQHSRELPPTFGGGTKLEIK	8.51
2-H7-A (antibody, V domains shown) VH: QAYLQQSGAELVRPGASVKMSCKASGYTFTGYTMHWVKQTPRQGLEWIGAIYPENGDTSYNQKFKGKATLTVDKSSSTAYMQLSSLTSEDSAVYFCARDGYDVLYGMDYWGQGTSVTVSS VL: DIVLTQSPASLAVSLGQRATISCRASKSVSTSGYSYMHWYQQKPGQPPKLLIYLASNLESGVPARFSGSGSGTDFTLNIHPVEEEDAATYYCQHSRELPWTFGGGTKLDIK	10.10
10-L12-A (antibody, V domains shown) VH: QAYLQQSGAELVRPGASVKMSCKASGYTFTSYSMHWVKQTPRQGLEWIGAIYPGNGDTSYNQKFKGKATLTVDKSSSTAYMQLSSLTSEDSAVYFCTRDYSNYPFDYWGQGTTLTVSS VL: DIVLTQSPASLAVSLGQRATISCRASKSVSTSGYSYLHWYQQKPGQPPKLLIYLASNLESGVPARFSGSGSGTDFTLNIHPVEEEDAATYYCQHSRELPPTFGGGTKLEIK	9.89

Fill in reported pEC50 for this entry: 7-B10-A (antibody, V domains shown) VH: EVQLVESGGGLVQPKGSLKLSCAASGFTFNTYAMHWVRQAPGKGLEWVARIRSKSSNYARYYADSVKDRFTISRDESQSMLYLQMNNLKTEDTAMYYCVRDHDYYGSSYWFAYWGQGTLVTVSA VL: DVVMTQTPLSLPVSLGDQASISCSSSQSLVHNNGNTYLHWYLQKPGQSPKLLIYKVSNRFSGVPDRFSGSGSGTDFTLKISRVEAEDLGVYFCSQSTHVPWTFGGGTKLEIK 10.10
